B1: ZNF263 (parent)
chain: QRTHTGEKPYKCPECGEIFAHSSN

# Variants of: B1
# procedure details: protein stability index of a GFP-peptide fusion (GPS, HEK-293T) (PSI 1-6); higher = more stable;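 also: lentivirally expressed fusions sorted by FACS into six bins by GFP to DsRed ratio, PSI derived from sequencing read proportions per bin multiplied by bin number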
# details: c terminus: a fixed tail appended
endpoint: protein stability index

biopolymer_sequence="QRTHTGEKPYKCPECGEIFAHRSN [S22R]" reported_result=2.38
biopolymer_sequence="TRTHTGEKPYKCPECGEIFAHSSN [Q1T]" reported_result=2.82
biopolymer_sequence="QRTHTGEKPYKCPECGEIFACSSN [H21C]" reported_result=3.5
